Test: chemical genetic growth profiling, strain panel (AID 1159580);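 further: tested at 20 µM; growth read once vehicle control cultures reached saturation at 30 °C; 1 = growth at the plate median or of vehicle wells; lower values mean less growth of the strain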
Conditions: S. cerevisiae deletion strains, growth OD, locus YBL061C, strain skt5, hits give low values
Out of some 5,500 compounds screened, about 2,000 (36%) were called active. Not shown: some 18% with an inconclusive outcome. Some of the results follow.
measurement-kind: normalized growth

CC1(C)OC(=O)NC1=O : 1.02
CS(=O)(=O)c1ccc(C2=C(c3ccccc3)C(=O)OC2)cc1 : 0.972
COC1=CC(=O)C[C@@H](C)[C@]12Oc1c(Cl)c(OC)cc(OC)c1C2=O : 0.972
COc1cc(NC(C)CCCN)c2ncccc2c1 (stereo unspecified) : 1
c1ccc(N=Nc2ccccc2)cc1 : 0.991
CN1CCc2cc3c(cc2[C@H]1C1OC(=O)c2c1ccc1c2OCO1)OCO3 (stereo partly specified) : 0.982

Where do the numbers come from? From PubChem BioAssay AID1159580.
